system: OVCAR-3; test: Cytotoxicity against human OVCAR3 cells assessed as cell growth at 10 uM; assay type: cell-based; settings: ovcar-3, 10 µM
EXPERIMENTAL_READOUT: Activity (%)
Answers are plain numbers, in %.

COMPOUND: COC(=O)c1cc(C(=O)OC)c2c(Cl)cc(NC(C)=O)cc2n1
MEASUREMENT_TARGET: OVCAR-3
EXPERIMENTAL_READOUT: Activity
NUMBER: 124.69
//
COMPOUND: COC(=O)c1cc2c3c(n1)C(=O)C(=O)C(Cl)=C3N(C)C2=O
MEASUREMENT_TARGET: OVCAR-3
EXPERIMENTAL_READOUT: Activity
NUMBER: 123.43
//
COMPOUND: CN1C(=O)c2cc(C(N)=O)nc3c(N)c(Cl)c(N)c1c23 [AMMOSAMIDE B]
MEASUREMENT_TARGET: OVCAR-3
EXPERIMENTAL_READOUT: Activity
NUMBER: 115.24
//
COMPOUND: COC(=O)c1cc(C(N)=O)nc2cc(N)cc(Cl)c12
MEASUREMENT_TARGET: OVCAR-3
EXPERIMENTAL_READOUT: Activity
NUMBER: 110.07
//
COMPOUND: CN(C)C(=O)c1cc2c3c(c(Cl)cc(Cl)c3n1)N(C)C2=O
MEASUREMENT_TARGET: OVCAR-3
EXPERIMENTAL_READOUT: Activity
NUMBER: 126.09

Note: attention shifts to another entry.
Enter reported Activity observed with OVCAR-3 for `COC(=O)c1cc(C(N)=O)nc2cc(NC(C)=O)cc(Cl)c12`
120.2
